# pKi listing for each entry below
- System Under Test: Histamine H3 receptor (Cavia porcellus, UniProt Q9JI35)
- Sequence (Q9JI35 whole entry): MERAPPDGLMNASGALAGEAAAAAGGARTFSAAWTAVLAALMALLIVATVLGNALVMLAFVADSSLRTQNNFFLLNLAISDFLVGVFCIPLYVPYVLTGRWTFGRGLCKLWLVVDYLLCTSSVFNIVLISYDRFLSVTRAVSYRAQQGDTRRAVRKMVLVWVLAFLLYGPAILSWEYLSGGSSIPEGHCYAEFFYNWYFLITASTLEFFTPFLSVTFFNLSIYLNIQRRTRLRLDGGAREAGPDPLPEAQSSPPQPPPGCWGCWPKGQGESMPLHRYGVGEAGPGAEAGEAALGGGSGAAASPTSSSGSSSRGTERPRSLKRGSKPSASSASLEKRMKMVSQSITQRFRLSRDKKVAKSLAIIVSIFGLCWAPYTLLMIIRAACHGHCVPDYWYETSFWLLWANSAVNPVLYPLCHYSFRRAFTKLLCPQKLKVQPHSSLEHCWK
pKi: −log10 of the molar value.
Observation Type: pKi

[[record]]
structure_notation = "O=S(=O)(NCCCCCc1cnc[nH]1)c1ccc(Cl)cc1"
reported_result = 7.94

[[record]]
structure_notation = "O=[N+]([O-])c1ccc(S(=O)(=O)NCCCCCc2c[nH]cn2)cc1"
reported_result = 8.26

[[record]]
structure_notation = "O=S(=O)(NCCCCc1cnc[nH]1)c1ccc(Cl)cc1"
reported_result = 8.05


###

- System Under Test: UniProtKB P31389
- Sequence (P31389 whole entry): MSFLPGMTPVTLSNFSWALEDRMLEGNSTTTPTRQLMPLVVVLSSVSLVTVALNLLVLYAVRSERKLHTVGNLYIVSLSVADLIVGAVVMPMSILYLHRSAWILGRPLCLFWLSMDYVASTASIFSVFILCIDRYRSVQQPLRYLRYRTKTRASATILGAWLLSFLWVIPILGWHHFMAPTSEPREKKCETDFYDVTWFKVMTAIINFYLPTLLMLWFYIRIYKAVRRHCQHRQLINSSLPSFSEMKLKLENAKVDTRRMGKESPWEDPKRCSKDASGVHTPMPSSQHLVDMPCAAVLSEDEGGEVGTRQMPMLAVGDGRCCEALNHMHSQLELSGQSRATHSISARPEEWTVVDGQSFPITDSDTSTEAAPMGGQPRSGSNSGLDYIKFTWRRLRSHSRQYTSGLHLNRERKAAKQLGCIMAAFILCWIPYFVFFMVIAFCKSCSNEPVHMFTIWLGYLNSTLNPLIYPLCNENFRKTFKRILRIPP
- Assay Text: Evaluated for the percent binding affinity against H1 receptor by an H1 histamine-mediated bronchospasm
- Design: concentration or dose not given beside the values
Records here are stratified by inhibition; strata: low: < 10%; middle: ≥ 10% and < 40%; high: ≥ 40%

[[record]]
structure_notation = "CC(C)(C)c1ccc(S(=O)(=O)NCCCCCc2c[nH]cn2)cc1"
system_under_test = "UniProtKB P31389"
group_label = "middle"

[[record]]
structure_notation = "O=S(=O)(NCCCCc1c[nH]cn1)c1ccc(C(F)(F)F)cc1"
system_under_test = "UniProtKB P31389"
group_label = "low"

[[record]]
structure_notation = "O=[N+]([O-])c1ccc(S(=O)(=O)NCCCc2c[nH]cn2)cc1"
system_under_test = "UniProtKB P31389"
group_label = "middle"

[[record]]
structure_notation = "O=S(=O)(c1ccc(Cl)cc1)N(CCCCc1c[nH]cn1)Cc1ccc(Cl)cc1"
system_under_test = "UniProtKB P31389"
group_label = "high"

[[record]]
structure_notation = "O=S(=O)(NCCCc1c[nH]cn1)c1ccc(Cl)cc1"
system_under_test = "UniProtKB P31389"
group_label = "middle"

[[record]]
structure_notation = "O=S(=O)(Cc1ccccc1)NCCCCc1c[nH]cn1"
system_under_test = "UniProtKB P31389"
group_label = "low"

[[record]]
structure_notation = "O=[N+]([O-])c1ccc(S(=O)(=O)NCCCCCc2c[nH]cn2)cc1"
system_under_test = "UniProtKB P31389"
group_label = "middle"

[[record]]
structure_notation = "O=S(=O)(NCCCCc1c[nH]cn1)c1ccccc1"
system_under_test = "UniProtKB P31389"
group_label = "low"

[[record]]
structure_notation = "O=S(=O)(NCCCCc1c[nH]cn1)c1ccc(Cl)cc1"
system_under_test = "UniProtKB P31389"
group_label = "high"

[[record]]
structure_notation = "CN(CCCCc1c[nH]cn1)S(=O)(=O)c1ccc(Cl)cc1"
system_under_test = "UniProtKB P31389"
group_label = "middle"

[[record]]
structure_notation = "O=S(=O)(NCCCCCc1c[nH]cn1)c1ccc(Cl)cc1"
system_under_test = "UniProtKB P31389"
group_label = "middle"

